// drug sensitivity score lookup, one value per entry
tested on: NK-YS (IL-2 2.5 ng/mL); test: drug sensitivity score (DSS) (DSS units); higher = more sensitive; extreme values may be limits of the assay; details: 72 h

# MOLECULE, drug sensitivity score
rows = [
    ("CN(C)C(=O)c1cc2cnc(Nc3ccc(N4CCNCC4)cn3)nc2n1C1CCCC1 [NVP-LEE011] (max concentration tested 10000 nM)", 4.9),
    ("COCC1(CO)C(=O)C2CCN1CC2 (stereo not drawn) [APR-246] (max concentration tested 10000 nM)", 1.17),
    ("NCC(=O)Nc1ccc(-n2nc(C(F)(F)F)cc2-c2ccc3c(ccc4ccccc43)c2)cc1 (max concentration tested 25000 nM)", 12.3),
    ("Cc1cnc(NC(=O)Nc2cc(Br)c(C)cc2OC[C@@H]2CNCCO2)cn1 [Rabusertib] (max concentration tested 1000 nM)", 4.02),
    ("Cc1ccc2nc(CN(CCN(Cc3nc4ccc(C)cc4[nH]3)Cc3nc4ccc(C)cc4[nH]3)Cc3nc4ccc(C)cc4[nH]3)[nH]c2c1 (max concentration tested 50000 nM)", 8.57),
    ("CC(=O)c1c(C)c2cnc(Nc3ccc(N4CCNCC4)cn3)nc2n(C2CCCC2)c1=O [Palbociclib] (max concentration tested 10000 nM)", 9.09),
    ("CNC(=O)c1cccc2cc(Oc3ccnc4cc(OCC5(N)CC5)c(OC)cc34)ccc12 [Lucitanib] (max concentration tested 10000 nM)", 5.23),
    ("C[C@@H]1C[C@H]2O[C@@H]2/C=C\\C=C\\C(=O)Cc2c(Cl)c(O)cc(O)c2C(=O)O1 [Radicicol] (max concentration tested 10000 nM)", 20),
]
